Data origin: patent US12319684B2

Listed here are molecules together with their documented Emax.
Target: human apelin receptor (APJ, AGTRL-1, APLNR) (Homo sapiens)
Construct: host or cells: Chinese hamster ovary cells
Test: APJ cAMP cell-based assay (forskolin-stimulated CHO cells, enzyme fragment complementation)
Conditions: CHO, 0.5 h; percentage of the maximal apelin-13 response at 1 nM (control); read-out: APJ cAMP % resp (efficacy)
All answers are understood in %, so give the number only.

INSERT INTO measurements (molecule, val) VALUES
  ('COc1ccccc1-n1c(SCc2cc(=O)n3cc(C)ccc3n2)nnc1-c1nccs1 [Example 14]', 105),
  ('COc1ccccc1-n1c(SCc2ccccc2F)nnc1-c1cccs1 [Example 74]', 80),
  ('COc1ccccc1-n1c(OCc2coc(-c3ccccc3)n2)nnc1-c1cccs1 [Example 81]', 101),
  ('COc1ccccc1-n1c(SCc2ccc(Cl)c(Cl)c2)nnc1-c1cccs1 [Example 71]', 99),
  ('COc1ccccc1-n1c(SCc2cc(=O)n3cc(C)ccc3n2)nnc1-c1cccs1 [Example 48]', 103);

[ask] Field: Emax (human apelin receptor (APJ, AGTRL-1, APLNR) (Homo sapiens)). Entry: COc1ccccc1-n1c(SCc2cc(=O)n3cc(C)ccc3n2)nnc1-c1ccc([N+](=O)[O-])cc1 [Example 7]
[reply] 51

[ask] Field: Emax (human apelin receptor (APJ, AGTRL-1, APLNR) (Homo sapiens)). Entry: COc1ccccc1-n1c(SCc2coc(-c3ccc(F)cc3)n2)nnc1-c1cccs1 [Example 39]
[reply] 93

[ask] Field: Emax (human apelin receptor (APJ, AGTRL-1, APLNR) (Homo sapiens)). Entry: COc1ccccc1-n1c(SCc2csc(-c3ccc(F)cc3)n2)nnc1-c1cccs1 [Example 33]
[reply] 80

[ask] Field: Emax (human apelin receptor (APJ, AGTRL-1, APLNR) (Homo sapiens)). Entry: COc1ccccc1-n1c(SCc2cc(=O)n3cc(C)ccc3n2)nnc1-c1ccco1 [Example 2]
[reply] 154

[ask] Field: Emax (human apelin receptor (APJ, AGTRL-1, APLNR) (Homo sapiens)). Entry: COc1ccccc1-n1c(SCc2coc(-c3ccc(C)cc3)n2)nnc1-c1cccs1 [Example 41]
[reply] 58

[ask] Field: Emax (human apelin receptor (APJ, AGTRL-1, APLNR) (Homo sapiens)). Entry: COc1ccccc1-n1c(SCc2nc(=O)c3ccc(F)cc3[nH]2)nnc1-c1cccs1 [Example 63]
[reply] 108

###

Target: human apelin receptor (APJ, AGTRL-1, APLNR) (Homo sapiens)
Construct: host or cells: Chinese hamster ovary cells
Assay: APJ cAMP cell-based assay (forskolin-stimulated CHO cells, enzyme fragment complementation)
Conditions: CHO, 0.5 h, read-out: APJ cAMP % resp (efficacy)
Listed here are molecules together with their documented Emax.
All answers are understood in %, so give the number only.

INSERT INTO assay_data (molecule, unit_name, val) VALUES
  ('COc1ccccc1-n1c(SCc2nc(=O)c3cc(OC(F)(F)F)ccc3[nH]2)nnc1-c1cccs1 [Example 69]', '%', 59),
  ('COc1ccccc1-n1c(SCc2cc(=O)n3c(C)cccc3n2)nnc1-c1cccs1 [Example 44]', '%', 119),
  ('COc1ccccc1-n1c(SCc2ccncn2)nnc1-c1cccs1 [Example 78]', '%', 50),
  ('COc1ccccc1-n1c(SCc2nc(=O)c3cccc(F)c3[nH]2)nnc1-c1cccs1 [Example 57]', '%', 106),
  ('COc1ccccc1-n1c(SCc2nc(=O)c3ccccc3[nH]2)nnc1-c1cccs1 [Example 52]', '%', 113),
  ('COc1ccccc1-n1c(SCc2csc(-c3ccccc3)n2)nnc1-c1cccs1 [Example 31]', '%', 133),
  ('COc1ccc(-n2c(SCc3cc(=O)n4cc(C)ccc4n3)nnc2-c2cccs2)cc1 [Example 20]', '%', 10);

// next item, Emax requested
[ask] Need Emax, item COc1ccccc1-n1c(-c2cccs2)cnc1SCc1cc(=O)n2cc(C)ccc2n1 [Example 79]
[reply] 54

###

Biological target: human apelin receptor (APJ, AGTRL-1, APLNR) (Homo sapiens)
Construct: host or cells: Chinese hamster ovary cells
Test: APJ cAMP cell-based assay (forskolin-stimulated CHO cells, enzyme fragment complementation)
Details: CHO cells expressing human APJ, forskolin-stimulated, 0.5 h incubation; 50% of control (apelin-13, 1 nM) response; read-out: APJ cAMP EC50
Experimental readout: pEC50
pEC50 here is simply -log10 of the concentration when that concentration is written in mol/L.

[ask] Need pEC50, item COc1ccccc1-n1c(SCc2cc(=O)n3cc(C)ccc3n2)nnc1-c1ccc(Br)o1 [Example 10]
[reply] 7.74

[ask] Need pEC50, item COc1ccccc1-n1c(SCc2ccc(Cl)c(Cl)c2)nnc1-c1cccs1 [Example 71]
[reply] 5.91

[ask] Need pEC50, item COc1ccccc1-n1c(SCc2cc(=O)n3cc(C)ccc3n2)nnc1-c1ccoc1 [Example 16]
[reply] 7.01

[ask] Need pEC50, item COc1ccccc1-n1c(SCc2nc(=O)c3cc(Cl)ccc3[nH]2)nnc1-c1cccs1 [Example 62]
[reply] 7.27

[ask] Need pEC50, item COc1ccccc1-n1c(SCc2cc(=O)n3cc(C)ccc3n2)nnc1-c1ccc(Br)s1 [Example 8]
[reply] 6.26

###

Target: human apelin receptor (APJ, AGTRL-1, APLNR) (Homo sapiens, UniProt P35414)
Construct: host or cells: Chinese hamster ovary cells
Test: APJ cAMP cell-based assay (forskolin-stimulated CHO cells, enzyme fragment complementation)
Details: CHO cells expressing human APJ, forskolin-stimulated, 0.5 h incubation; 50% of control (apelin-13, 1 nM) response; read-out: APJ cAMP EC50
pEC50: −log10 of the molar value.
Binning scheme for pEC50: bucket A (below 6), bucket B (6 to below 7), bucket C (7 or more)

INSERT INTO results (compound, group_label) VALUES
  ('COc1ccccc1-n1c(SCc2cccc(F)c2)nnc1-c1cccs1 [Example 73]', 'bucket A'),
  ('COc1ccccc1-n1c(SCc2coc(-c3ccc(C(F)(F)F)cc3)n2)nnc1-c1cccs1 [Example 38]', 'bucket A'),
  ('Cc1ccc2nc(CSc3nnc(-c4cccs4)n3-c3ccccc3C)cc(=O)n2c1 [Example 23]', 'bucket B'),
  ('COc1ccccc1-n1c(SCc2nc(=O)c3cc(C(F)(F)F)ccc3[nH]2)nnc1-c1cccs1 [Example 64]', 'bucket B'),
  ('Cc1ccc2nc(CSc3nnc(-c4cccs4)n3-c3cccc(Cl)c3)cc(=O)n2c1 [Example 28]', 'bucket A');

[ask] Bin this entry: COc1ccccc1-n1c(SCc2cc(=O)n3cc(F)ccc3n2)nnc1-c1cccs1 [Example 49]
[reply] bucket C

[ask] Bin this entry: COc1ccccc1-n1c(OCc2coc(-c3ccccc3)n2)nnc1-c1cccs1 [Example 81]
[reply] bucket B

[ask] Bin this entry: COc1ccccc1-n1c(SCc2coc(-c3ccc(Cl)cc3)n2)nnc1-c1cccs1 [Example 40]
[reply] bucket A

[ask] Bin this entry: COc1ccccc1-n1c(SCc2cc(=O)n3cc(C#N)ccc3n2)nnc1-c1cccs1 [Example 47]
[reply] bucket C

###

Target: human apelin receptor (APJ, AGTRL-1, APLNR) (Homo sapiens, UniProt P35414)
Construct: host or cells: Chinese hamster ovary cells
Sequence (P35414 1-380): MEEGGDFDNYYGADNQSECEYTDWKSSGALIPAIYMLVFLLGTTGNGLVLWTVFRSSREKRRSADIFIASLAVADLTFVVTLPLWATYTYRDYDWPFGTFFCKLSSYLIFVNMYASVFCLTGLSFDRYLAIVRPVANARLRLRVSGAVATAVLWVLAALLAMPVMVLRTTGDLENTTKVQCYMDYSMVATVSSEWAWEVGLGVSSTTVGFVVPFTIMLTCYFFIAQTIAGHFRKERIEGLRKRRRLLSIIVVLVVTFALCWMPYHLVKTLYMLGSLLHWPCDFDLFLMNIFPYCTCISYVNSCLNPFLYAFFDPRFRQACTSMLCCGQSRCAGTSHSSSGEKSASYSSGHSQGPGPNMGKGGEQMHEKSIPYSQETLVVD
Assay: APJ cAMP cell-based assay (forskolin-stimulated CHO cells, enzyme fragment complementation)
Details: CHO, 0.5 h; percentage of the maximal apelin-13 response at 1 nM (control); read-out: APJ cAMP % resp (efficacy)
Experimental readout: Emax (%)
All answers are understood in %, so give the number only.

INSERT INTO results (compound, system_name, experimental_readout, val) VALUES
  ('COc1ccccc1-n1c(SCc2coc(-c3ccc(Cl)cc3)n2)nnc1-c1cccs1 [Example 40]', 'human apelin receptor (APJ, AGTRL-1, APLNR) (Homo sapiens, UniProt P35414)', 'Emax', 58);

[ask] Need Emax, item COc1ccccc1-n1c(SCc2cc(=O)n3cc(F)ccc3n2)nnc1-c1cccs1 [Example 49]
[reply] 107

###

Target: human apelin receptor (APJ, AGTRL-1, APLNR) (Homo sapiens)
Construct: host or cells: Chinese hamster ovary cells
Assay: APJ cAMP cell-based assay (forskolin-stimulated CHO cells, enzyme fragment complementation)
Conditions: CHO cells expressing human APJ, forskolin-stimulated, 0.5 h incubation; 50% of control (apelin-13, 1 nM) response; read-out: APJ cAMP EC50
Listed here are compounds together with their documented EC50.

INSERT INTO measurements (smiles_text, experimental_readout, val) VALUES
  ('COc1ccccc1-n1c(SCc2cc(=O)n3cc(C)ccc3n2)nnc1-c1ccccc1', 'EC50', '6160 nM'),
  ('COc1ccc(-n2c(SCc3cc(=O)n4cc(C)ccc4n3)nnc2-c2cccs2)cn1', 'EC50', '> 10000 nM'),
  ('COc1ccccc1-n1c(SCc2nc(=O)c3ccc(Cl)cc3[nH]2)nnc1-c1cccs1', 'EC50', '482 nM');

// next item, EC50 requested
[ask] Need EC50, item "COc1ccccc1-n1c(SCc2cc(=O)n3cc(C)ccc3n2)nnc1-c1cccn1C"
[reply] 1700 nM
